Tested on: Serratia marcescens
Experiment: MIC against Gram-negative bacteria: Serratia marcescens
Assay type: cell-based
Settings: Serratia marcescens; 96-well plate, 5×10^5 CFU/mL, 37° C., 10 h
Field: MIC (μg/mL) S. marcescens. Provide a value for each of the substances that follow.
Give bare numbers, in µg/mL.

Past entries and their recorded results:
- SUBSTANCE: "PRT42 (CQCNGHSKCINQSICEKCENLTTGKHCETCISGFYGDPTNGGKCQP; listed as Homo sapiens)"
  TEST SYSTEM: "Serratia marcescens"
  UNIT TAG: "µg/mL"
  MIC (μg/mL) S. marcescens: 50
- SUBSTANCE: "PRT118 (DVDECVGPGGPLCDSLCFNTQGSFHCGCLPGWVLAPNGVSCT; listed as Homo sapiens)"
  TEST SYSTEM: "Serratia marcescens"
  UNIT TAG: "µg/mL"
  MIC (μg/mL) S. marcescens: 12.5
- SUBSTANCE: "PRT18 (CQCNPHGSYGGTCDPATGQCSCRPGVGGLRCDRCEPGFWNFRGIVTDGRSGCTP; listed as Homo sapiens)"
  TEST SYSTEM: "Serratia marcescens"
  UNIT TAG: "µg/mL"
  MIC (μg/mL) S. marcescens: 12.5
- SUBSTANCE: "PRT19 (CSCDPQGAVRDDCEQMTGLCSCKPGVAGPKCGQCPDGRALGPAGCEA; listed as Homo sapiens)"
  TEST SYSTEM: "Serratia marcescens"
  UNIT TAG: "µg/mL"
  MIC (μg/mL) S. marcescens: 50
- SUBSTANCE: "PRT138 (PCHNNATCEDSVDNYTCHCWPGYTGAQCE; listed as Homo sapiens)"
  TEST SYSTEM: "Serratia marcescens"
  UNIT TAG: "µg/mL"
  MIC (μg/mL) S. marcescens: 25
- SUBSTANCE: "PRT1498 (PESPCLQNPCQNDGQCREQGATFTCECEVGYGGGLCM; listed as Homo sapiens)"
  TEST SYSTEM: "Serratia marcescens"
  UNIT TAG: "µg/mL"
  MIC (μg/mL) S. marcescens: 12.5
- SUBSTANCE: "PRT7 (TCLSSKEGTICSGNGVCSNELKCVCNRHWIGSDCN; listed as Homo sapiens)"
  TEST SYSTEM: "Serratia marcescens"
  UNIT TAG: "µg/mL"
  MIC (μg/mL) S. marcescens: 12.5
- SUBSTANCE: "PRT109 (ASQACRTNPCLHGGRCLEVEGHRLCHCPVGYTGAFCD; listed as Homo sapiens)"
  TEST SYSTEM: "Serratia marcescens"
  UNIT TAG: "µg/mL"
  MIC (μg/mL) S. marcescens: 50
- SUBSTANCE: "PRT5 (DGDQCETSPCQNQGKCKDGLGEYTCTCLEGFEGKNCE; listed as Homo sapiens)"
  TEST SYSTEM: "Serratia marcescens"
  UNIT TAG: "µg/mL"
  MIC (μg/mL) S. marcescens: 25
- SUBSTANCE: "PRT14 (PPKPCDSQPCFHGGTCQDWALGGGFTCSCPAGRGGAVCE; listed as Homo sapiens)"
  TEST SYSTEM: "Serratia marcescens"
  UNIT TAG: "µg/mL"
  MIC (μg/mL) S. marcescens: 12.5

# map each substance to its MIC (μg/mL) S. marcescens
1. PRT62 (ASGDCVPSPCHNGGTCLEEEEGVRCLCLPGYGGDLCD; listed as Homo sapiens)
2. PRT96 (AQRFCPDGSPSECHEHADCVLERDGSRSCVCAVGWAGNGILCG; listed as Homo sapiens)
3. PRT115 (SRNPCSSSPCRGGATCVLGPHGKNYTCRCPQGYQLDSSQLDCV; listed as Homo sapiens)

Result:
1. 25
2. 12.5
3. 12.5

====

Test system: Proteus mirabilis
Experiment: MIC against Gram-negative bacteria: Proteus mirabilis
Format: cell-based
Details: 96-well plate, 5×10^5 CFU/mL, 37° C., 10 h
Provide the reported MIC P. mirabilis of each item.
Numbers only, in µg/mL.

Before answering, review these 5 worked examples.
- SUBSTANCE: "PRT618 (CDCDPAGIAGPCDAGRCVCKPAVTGERCDRCRSGYYNLDGGNPEGCTQ; listed as Homo sapiens)"
  UNIT TAG: "µg/mL"
  DATA VALUE: 12.5
- SUBSTANCE: "PRT615 (CDCHALGSTNGQCDIRTGQCECQPGITGQHCERCEVNHFGFGPEGCKP; listed as Homo sapiens)"
  UNIT TAG: "µg/mL"
  DATA VALUE: 12.5
- SUBSTANCE: "PRT635 (DINECLEDKSVCQRGDCINTAGSYDCTCPDGFQLDDNKTCQ; listed as Homo sapiens)"
  UNIT TAG: "µg/mL"
  DATA VALUE: 25
- SUBSTANCE: "PRT625 (CNCSGRSEECTFDRELFRSTGHGGRCHHCRDHTAGPHCERCQENFYHWDPRMPCQP; listed as Homo sapiens)"
  UNIT TAG: "µg/mL"
  DATA VALUE: 50
- SUBSTANCE: "PRT717 (DLNECLVFGTCSHQCINVEGSYKCVCDQNFQERNNTCI; listed as Homo sapiens)"
  UNIT TAG: "µg/mL"
  DATA VALUE: 25

# per-item lookup of MIC P. mirabilis; items listed below
1. PRT636 (DINECEHPGLCGPQGECLNTEGSFHCVCQQGFSISADGRTCE; listed as Homo sapiens)
2. PRT680 (DVNECAEGSPCSPGWCENLPGSFRCTCAQGYAPAPDGRSCL; listed as Homo sapiens)

Result:
12.5
12.5

====

Please go through the items and note down their MIC against P. aeruginosa.
Test system: Pseudomonas aeruginosa
Assay: MIC against Gram-negative bacteria: Pseudomonas aeruginosa
Type: cell-based
Details: Pseudomonas aeruginosa; 5×10^5 CFU/mL; 10 h cultivation at 37° C.
One number for each entry, in mg/L.

Please review the entries below; each comes with its answer.
- SUBSTANCE: "PRT1478 (GGSPCISQPCLHNGSCQDSIWGYTCTCSPGYEGSNCE; listed as Homo sapiens)"
  TEST SYSTEM: "Pseudomonas aeruginosa"
  DATA VALUE: 50
- SUBSTANCE: "PRT1446 (FLSPCVDDCGPYGQCKLLRTHNYLYAACECKAGWRGWGCT; listed as Homo sapiens)"
  TEST SYSTEM: "Pseudomonas aeruginosa"
  DATA VALUE: 25
- SUBSTANCE: "PRT1482 (LCSFGCGSGICIAPNVCSCQDGEQGATCP; listed as Homo sapiens)"
  TEST SYSTEM: "Pseudomonas aeruginosa"
  DATA VALUE: 12.5

Task: // lookup MIC against P. aeruginosa for PRT1444 (HHIPCPEHYNGFCMHGKCEHSINMQEPSCRCDAGYTGQHCE; listed as Homo sapiens)
Result: 50

====

Kindly supply the reported MIC values for the records listed here.
Test system: Aeromonas hydrophila
Test: MIC against Gram-negative bacteria: Aeromonas hydrophila
Format: cell-based
Details: A. hydrophila; 10 h cultivation at 37° C.
Kindly write the number and append the unit.

- SUBSTANCE: "PRT1036 (VEDKCEKACRPEEECLALNSTWGCFCRQDLNSSDVHSLQPQLDCG; listed as Homo sapiens)"
  DATA VALUE: "12.5 µg/mL"
- SUBSTANCE: "PRT1027 (PGNPCYDGSHMCDTTARCHPGTGVDYTCECASGYQGDGRNCV; listed as Homo sapiens)"
  DATA VALUE: "12.5 µg/mL"
- SUBSTANCE: "PRT1000 (ELGGCISAPCAHGGTCYPQPSGYNCTCPTGYTGPTCS; listed as Homo sapiens)"
  DATA VALUE: "25 µg/mL"
- SUBSTANCE: "PRT939 (DMNECLSEPCKNGGTCSDYVNSYTCKCQAGFDGVHCE; listed as Homo sapiens)"
  DATA VALUE: "12.5 µg/mL"
- SUBSTANCE: "PRT1012 (APKGCGPPSPCLYNGSCSETTGLGGPGFRCSCPHSSPGPRCQ; listed as Homo sapiens)"
  DATA VALUE: "12.5 µg/mL"

For each of the items listed, what is its MIC?
1. PRT917 (DVNECGQKPGLCRHGGTCHNEVGSYRCVCRATHTGPNCE; listed as Homo sapiens)
2. PRT1017 (NPDNCVSHQCQNGGTCQDGLDTYTCLCPETWTGWDCS; listed as Homo sapiens)
3. PRT896 (EVNECNSNPCVHGACRDSLNGYKCDCDPGWSGTNCD; listed as Homo sapiens)

Result:
1. 25 µg/mL
2. 12.5 µg/mL
3. 12.5 µg/mL

====

Test system: Serratia marcescens
Assay: MIC against Gram-negative bacteria: Serratia marcescens
Assay type: cell-based
Details: 96-well plate, 5×10^5 CFU/mL, 37° C., 10 h
ENDPOINT: MIC S. marcescens (µg/mL)
Answers are plain numbers, in µg/mL.

- SUBSTANCE: "PRT674 (DVDECQDPAACRPGRCVNLPGSYRCECRPPWVPGPSGRDCQ; listed as Homo sapiens)"
  UNIT TAG: "µg/mL"
  MIC S. marcescens: 25
- SUBSTANCE: "PRT676 (DINECAMPGVCRHGDCLNNPGSYRCVCPPGHSLGPSRTQCI; listed as Homo sapiens)"
  UNIT TAG: "µg/mL"
  MIC S. marcescens: 12.5
- SUBSTANCE: "PRT712 (GSNSCQLNNGGCSQLCLPTSETTRTCMCTVGYYLQKNRMSCQ; listed as Homo sapiens)"
  UNIT TAG: "µg/mL"
  MIC S. marcescens: 12.5

Please report MIC S. marcescens for every entry that follows.
1. PRT639 (DADECLLFGQEICKNGFCLNTRPGYECYCKQGTYYDPVKLQCF; listed as Homo sapiens)
2. PRT649 (DVDECLEPNVCANGDCSNLEGSYMCSCHKGYTRTPDHKHCR; listed as Homo sapiens)
3. PRT637 (DIDECVNNTVCDSHGFCDNTAGSFRCLCYQGFQAPQDG; listed as Homo sapiens)
4. PRT594 (CACNNNIDVTDPESCSRVTGECLRCLHNTQGANCQLCKPGHYGSALNQTCRR; listed as Homo sapiens)

Result:
1. 25
2. 25
3. 50
4. 50
